# target.or.test.system: HumRadA22
# test: fluorescence polarisation; competition: displacement of a fluorescently-labelled BRC4 repeat from HumRadA22; KD calculated from IC50; single titrations with three technical replicates at each point; mock (linear) samples with 500 uM TCEP
value.type: pKd
Give bare numbers, as −log10 of the molar value.

Query: Reported pKd, binder VNSSAFSGFCTASGKKLNVSCEALQKAVKLFSDIENIS (modifications not checked) [GB1-SP7-His8, mock-stapled (linear)] : ____
Reply: 7.41
